system: GST-DCL3 F5 (UniProt Q9LXW7)
Sequence (Q9LXW7 whole entry): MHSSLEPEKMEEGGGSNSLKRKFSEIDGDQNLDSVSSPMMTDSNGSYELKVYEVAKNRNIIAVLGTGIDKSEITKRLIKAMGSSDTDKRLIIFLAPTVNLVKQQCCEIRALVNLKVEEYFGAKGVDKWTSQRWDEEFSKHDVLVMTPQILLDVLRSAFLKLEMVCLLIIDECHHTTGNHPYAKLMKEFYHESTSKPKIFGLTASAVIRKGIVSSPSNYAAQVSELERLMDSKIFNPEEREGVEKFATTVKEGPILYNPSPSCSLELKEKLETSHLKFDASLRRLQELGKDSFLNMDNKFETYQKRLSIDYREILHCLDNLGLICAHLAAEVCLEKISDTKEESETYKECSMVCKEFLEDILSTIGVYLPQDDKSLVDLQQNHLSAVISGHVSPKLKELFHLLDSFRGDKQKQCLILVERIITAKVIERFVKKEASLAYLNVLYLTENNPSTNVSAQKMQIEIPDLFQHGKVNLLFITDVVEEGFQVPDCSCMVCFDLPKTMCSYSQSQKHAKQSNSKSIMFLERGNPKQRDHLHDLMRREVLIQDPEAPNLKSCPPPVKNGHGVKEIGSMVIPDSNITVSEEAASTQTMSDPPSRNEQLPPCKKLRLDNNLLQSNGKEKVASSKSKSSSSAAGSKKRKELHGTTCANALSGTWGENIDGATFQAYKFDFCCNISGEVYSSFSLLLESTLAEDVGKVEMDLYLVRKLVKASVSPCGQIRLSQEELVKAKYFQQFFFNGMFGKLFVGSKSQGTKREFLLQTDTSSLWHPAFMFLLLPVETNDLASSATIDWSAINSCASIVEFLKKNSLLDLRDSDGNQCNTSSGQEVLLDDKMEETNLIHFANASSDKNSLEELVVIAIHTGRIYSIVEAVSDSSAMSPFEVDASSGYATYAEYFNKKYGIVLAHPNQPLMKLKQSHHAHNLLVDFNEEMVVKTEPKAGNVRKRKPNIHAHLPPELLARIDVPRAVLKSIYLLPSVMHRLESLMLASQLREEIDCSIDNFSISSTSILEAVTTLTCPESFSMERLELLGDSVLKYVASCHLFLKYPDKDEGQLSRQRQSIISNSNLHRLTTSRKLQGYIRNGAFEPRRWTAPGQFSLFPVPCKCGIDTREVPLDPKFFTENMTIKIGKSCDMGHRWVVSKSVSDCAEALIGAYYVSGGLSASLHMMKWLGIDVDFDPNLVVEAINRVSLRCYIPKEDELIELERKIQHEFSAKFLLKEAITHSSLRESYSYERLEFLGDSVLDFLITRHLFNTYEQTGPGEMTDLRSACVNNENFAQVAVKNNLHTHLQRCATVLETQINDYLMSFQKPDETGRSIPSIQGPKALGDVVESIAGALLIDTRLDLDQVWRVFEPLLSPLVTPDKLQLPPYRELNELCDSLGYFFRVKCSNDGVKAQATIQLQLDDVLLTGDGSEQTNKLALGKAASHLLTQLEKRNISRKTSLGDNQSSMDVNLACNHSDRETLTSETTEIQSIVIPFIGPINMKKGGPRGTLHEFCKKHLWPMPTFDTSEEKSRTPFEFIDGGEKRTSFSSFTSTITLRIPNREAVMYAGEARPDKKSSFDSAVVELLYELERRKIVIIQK
assay notes: MST
condition parameters: MST: 50 mM Tris-HCl pH 7.4, 150 mM NaCl, 10 mM MgCl2, 0.01% Tween 20, 100 nM RED-NHS labelled protein, incubation 5 min at room temperature (instrument printed …)
pKd: −log10 of the molar value.
# Lookup of reported pKd keyed by entry
readout label: pKd

sequence data	system	reported measurement
UCGCUUGGUGCAGGUCGGGAA / CCCGCCUUGCAUCAACUGAAU [miR168a duplex]	GST-DCL3 F5 (UniProt Q9LXW7)	5.97
AGAAUCUUGAUGAUGCUGCAU / GUGGCAUCAUCAAGAUUCACA [miR172a duplex]	GST-DCL3 F5 (UniProt Q9LXW7)	6.03
UGAAUUUCUGGUAUGGGUCCCGCC / CGGGACCCAUACCAGAAAUUCAUC [24-bp ds-sRNA (dsAtSN1)]	GST-DCL3 F5 (UniProt Q9LXW7)	6.26
UCAACAGGAUCGAGCUUAAGG / UUAAGCUCGAUCCUGUUGACG [21-bp ds-sRNA (ds siRGFP)]	GST-DCL3 F5 (UniProt Q9LXW7)	6.24
UACAAGACACGUGCUGAAGUCAAGUUUGAGGGAACACCCUCGUCAACAGGAUCG / AUCCUGUUGACGAGGGUGUCUCCCUCAAACUUGACUUCAGCACGUGUCUUGUAGU [55-bp ds-sRNA]	GST-DCL3 F5 (UniProt Q9LXW7)	6.23
